The following molecules are listed with their measured IC50 values.
target: [3H]-norepinephrine reuptake (Rattus norvegicus, UniProt Q63380); construct: the hypothalamus was rapidly removed and a crude synaptosomal fraction was prepared; from tissue; host or cells: rat hypothalamus, crude synaptosomal fraction; test: In vitro functional inhibition of [3H]-norepinephrine reuptake, hypothalamus synaptosomes; assay type: biochemical; details: read-out: Noradrenaline inhibition pIC50 (converted)
Sequence (Q63380 1-617): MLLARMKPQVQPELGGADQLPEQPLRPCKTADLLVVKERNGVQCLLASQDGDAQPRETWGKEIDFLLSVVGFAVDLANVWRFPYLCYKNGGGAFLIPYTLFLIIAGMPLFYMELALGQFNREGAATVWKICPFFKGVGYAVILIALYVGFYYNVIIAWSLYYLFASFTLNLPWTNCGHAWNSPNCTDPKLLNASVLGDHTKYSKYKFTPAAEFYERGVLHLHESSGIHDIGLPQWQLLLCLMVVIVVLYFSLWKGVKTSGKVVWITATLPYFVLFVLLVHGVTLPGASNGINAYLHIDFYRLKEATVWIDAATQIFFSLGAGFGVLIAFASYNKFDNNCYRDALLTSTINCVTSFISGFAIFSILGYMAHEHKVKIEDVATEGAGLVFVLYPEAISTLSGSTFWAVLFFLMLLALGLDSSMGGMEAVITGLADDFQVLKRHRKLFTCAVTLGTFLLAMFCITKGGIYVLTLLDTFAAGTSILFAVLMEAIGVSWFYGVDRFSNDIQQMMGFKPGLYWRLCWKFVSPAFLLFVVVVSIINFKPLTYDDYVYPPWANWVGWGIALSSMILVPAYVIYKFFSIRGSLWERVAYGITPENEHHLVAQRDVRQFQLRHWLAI

Worked cases, IC50 given:
COc1ccc([C@@H](C[N+](C)(C)[O-])C2(O)CCCCC2)cc1 [(S)-venlafaxine-N-oxide, S-Venlafaxine N-oxide] :: > 31.6 µM
C[N+](C)([O-])C[C@@H](c1ccc(O)cc1)C1(O)CCCCC1 [(R)—O-desmethyl-venlafaxine-N-oxide, O-Desmethyl-R-venlafaxine N-oxide] :: > 31.6 µM

Continue with the molecule presented below.
Prompt: Which IC50 value is on record for C[N+](C)([O-])C[C@H](c1ccc(O)cc1)C1(O)CCCCC1 [(S)—O-desmethyl-venlafaxine-N-oxide, O-desmethyl-S-venlafaxine N-oxide] ?
Completion: > 31.6 µM
